# Test system: GCaMP5-expressing T. gondii
# Construct: whole extracellular parasites expressing GCaMP5 Ca2+ sensor
# Set-up: species or system GCaMP5-expressing Toxoplasma gondii, extracellular; GCaMP5 fluorescence (cytosolic Ca2+) after 100 uM zaprinast in compound-pretreated extracellular parasites, background-subtracted, relative to zaprinast alone
# CONDITION_DETAILS: 100 uM zaprinast stimulation; 10 min pretreatment; mean of two replicates; 0.23 h
ATTRIBUTE_MEASURED: fold change in fluorescence relative to zaprinast alone
Give bare numbers.

Working through the 3 compounds below one at a time, give fold change in fluorescence relative to zaprinast alone for each.
1. CCCCc1nn2ncccc2c1-c1ccnc(NC2CC2)n1 [GW684374X]
2. COc1cc(Nc2nccc(N3CCC(NC(=O)c4cccc(NC(C)=O)c4)C3)n2)cc(OC)c1OC (stereo not shown) [GSK1379754A]
3. COc1ccc2c(-c3ccnc(Nc4cccc(OC(F)(F)F)c4)n3)cnn2n1 [GW810372X]

1: 0.8894; 2: 1.271; 3: 0.1756

Which fold change in fluorescence relative to zaprinast alone value belongs to CN(C)S(=O)(=O)c1cc(-c2ccc3nccc(-c4cccc(S(N)(=O)=O)c4)c3c2)cnc1N [GSK1669921A] ? 1.101

---

# Tested on: GCaMP5-expressing T. gondii
# Construct: whole extracellular parasites expressing GCaMP5 Ca2+ sensor
# Set-up: species or system GCaMP5-expressing Toxoplasma gondii, extracellular; GCaMP5 fluorescence (cytosolic Ca2+) after 100 uM zaprinast in compound-pretreated extracellular parasites, background-subtracted, relative to zaprinast alone
# CONDITION_DETAILS: 100 uM zaprinast stimulation; 10 min pretreatment; mean of two replicates; 0.23 h
Please provide measured fold change in fluorescence relative to zaprinast alone for the entries that follow.
Answers are plain numbers.

Solved entries (count: 3):
Cc1ccc(O)cc1Nc1ccnc2ccc(C(C)(C)C)cc12 [GW856805X] : 0.3414
CN(c1ccc2c(c1)nc(NCc1ccc(F)cc1)n2C)c1ccnc(Nc2ccc(CS(C)(=O)=O)cc2)n1 [GW813244A] : 1.154
COc1ccc2cc(-c3nc(-c4ccccc4C(C)C)[nH]c3-c3ccncc3)ccc2c1 : 0.9646

// lookup fold change in fluorescence relative to zaprinast alone | system=GCaMP5-expressing T. gondii | key= c1ccc(-c2ccc3c(Nc4ccc5[nH]ncc5c4)ccnc3c2)nc1 [GW440137A] 1.678

---

# Test system: GCaMP5-expressing T. gondii
# Construct: whole extracellular parasites expressing GCaMP5 Ca2+ sensor
# Set-up: species or system GCaMP5-expressing Toxoplasma gondii, extracellular; GCaMP5 fluorescence (cytosolic Ca2+) after 100 uM zaprinast in compound-pretreated extracellular parasites, background-subtracted, relative to zaprinast alone
# CONDITION_DETAILS: 100 uM zaprinast stimulation; 10 min pretreatment; mean of two replicates; 0.23 h
# Procedure: GCaMP5-expressing parasites were suspended in Ringer's solution at 4 × 10^7 parasites/ml, and 50 μl of parasites were applied to each well of a 96-well plate (Costar, catalog no. 3631). […] Parasites were then treated with 100 μM zaprinast or 0.1% DMSO as a vehicle control and incubated at 37 °C with 5% CO2 for an additional 4 min before measuring fluorescence with excitation and emission wavelengths of 485 and 525 nm, respectively, on a SpectraMax M3 (Molecular Devices). […]
So basically, if fold change in fluorescence relative to zaprinast alone comes in under 1 it's y, and if it's 1 or more it's n.

Take a look at these entries with their results.
COc1nccc(-c2c(-c3ccc(F)cc3)ncn2CCCN2CCOCC2)n1 [SB-282852] : y
O=C1NC(=O)C(c2cccc(Cl)c2)=C1Nc1ccc(Cl)c(C(=O)O)c1 [SB-409513] : n
O=C(Nc1n[nH]c2cc(-c3cc(F)ccc3F)ccc12)C1CC1 [SB-735465] : n
CSc1cccc2c(-c3ccncn3)c(-c3ccc(F)cc3)nn12 [GW514786X] : y

Now take the following compound into account.
Please determine if CN1CCN(Cc2ccc(-c3ccc4c(Nc5ccc(Oc6ccccn6)cc5)ccnc4c3)o2)CC1 [GW567140X] is below 1 in terms of fold change in fluorescence relative to zaprinast alone. n

Measured values drawn from paper PMC4850295 for this set.
